Biological target: T1, human melanocortin-4 receptor (human, UniProt P32245 1-332)
T1 construct: whole, on cells; functional assay: HEK293-T-REx-MC4-R cells induced with 0.1 or 10 ng/mL doxycycline; also called hMC4-R; MC4-R
T1 sequence (P32245 whole entry): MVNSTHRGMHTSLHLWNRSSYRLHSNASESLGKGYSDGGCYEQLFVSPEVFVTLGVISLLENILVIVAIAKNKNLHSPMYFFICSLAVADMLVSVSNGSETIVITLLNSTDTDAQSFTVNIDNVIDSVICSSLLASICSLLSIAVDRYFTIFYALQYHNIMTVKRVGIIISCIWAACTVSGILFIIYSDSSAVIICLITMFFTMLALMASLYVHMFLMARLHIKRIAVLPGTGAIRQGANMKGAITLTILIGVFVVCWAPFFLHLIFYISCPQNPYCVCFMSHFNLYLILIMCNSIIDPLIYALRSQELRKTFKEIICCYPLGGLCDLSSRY
Assay: [I125]-NDP-α-MSH competition, hMC4-R HEK-293 membranes
Procedure: A competitive inhibition binding assay was performed for exemplified peptides according to the invention using membrane homogenates prepared from HEK-293 cells that express recombinant hMC4-R, hMC3-R, or hMC5-R, and from B-16 mouse melanoma cells (containing endogenous MC1-R). […] Filters were dried and counted in a gamma counter for bound radioactivity. […] Ki values for test peptides of the present invention were determined using Graph-Pad Prism® curve-fitting software.
Positions of bridges follow the written chain, without caps; N, C: chain ends. Non-standard residues stand in square brackets, D forms with d. dPhe(2-CF3) = N[C@H](Cc1ccccc1C(F)(F)F)C(=O)O; dPhe(4-CN) = N#Cc1ccc(C[C@@H](N)C(=O)O)cc1; dPhe(3-Cl) = N[C@H](Cc1cccc(Cl)c1)C(=O)O; dPhe(2-Cl) = N[C@H](Cc1ccccc1Cl)C(=O)O; Orn = NCCC[C@H](N)C(=O)O
MEASUREMENT_LABEL: pKi
pKi field: float, defined as -log10 of concentration (mol/L).

For orientation, consider the following solved cases.
BINDER	RESULT_VALUE
Ac-REQ[dPhe(4-CN)]RW[Orn]-NH2 (lactam 2-7; also: acetate salt, acetate salt form; also called Ex 46) [Ac-Arg-cyclo(Glu-Gln-D-Phe(4-CN)-Arg-Trp-Orn)-NH2]	8.40
Ac-REK[dPhe(3-Cl)]RW[Orn]-NH2 (lactam 2-7; SMILES CC(=O)N[C@@H](CCCNC(=N)N)C(=O)N[C@H]1CCC(=O)NCCC[C@@H](C(N)=O)NC(=O)[C@H](Cc2c[nH]c3ccccc23)NC(=O)[C@H](CCCNC(=N)N)NC(=O)[C@@H](Cc2cccc(Cl)c2)NC(=O)[C@H](CCCCN)NC1=O, also called No. 100) [Ac-Arg-cyclo(Glu-Lys-D-Phe(3-Cl)-Arg-Trp-Orn)-NH2]	8.40
Ac-REQ[dPhe(2-CF3)]RW[Orn]-NH2 (lactam 2-7, also called No. 114) [Ac-Arg-cyclo(Glu-Gln-D-Phe(2-CF3)-Arg-Trp-Orn)-NH2]	8.10
Ac-REP[dPhe(4-CN)]RW[Orn]-NH2 (lactam 2-7; SMILES CC(=O)N[C@@H](CCCNC(=N)N)C(=O)N[C@H]1CCC(=O)NCCC[C@@H](C(N)=O)NC(=O)[C@H](Cc2c[nH]c3ccccc23)NC(=O)[C@H](CCCNC(=N)N)NC(=O)[C@@H](Cc2ccc(C#N)cc2)NC(=O)[C@@H]2CCCN2C1=O, also called No. 39) [Ac-Arg-cyclo(Glu-Pro-D-Phe(4-CN)-Arg-Trp-Orn)-NH2]	8.40
Ac-REP[dPhe(2-Cl)]RW[Orn]-NH2 (lactam 2-7; SMILES CC(=O)N[C@@H](CCCNC(=N)N)C(=O)N[C@H]1CCC(=O)NCCC[C@@H](C(N)=O)NC(=O)[C@H](Cc2c[nH]c3ccccc23)NC(=O)[C@H](CCCNC(=N)N)NC(=O)[C@@H](Cc2ccccc2Cl)NC(=O)[C@@H]2CCCN2C1=O, also called No. 88) [Ac-Arg-cyclo(Glu-Pro-D-Phe(2-Cl)-Arg-Trp-Orn)-NH2]	8.30

Quick one: pKi for Ac-R[Orn]Q[dPhe(2-CF3)]RWE-NH2 (lactam 2-7, also called No. 115) [Ac-Arg-cyclo(Orn-Gln-D-Phe(2-CF3)-Arg-Trp-Glu)-NH2] ?
8.40

Quick one: pKi for RDPXRWK (N-terminal Ac; D-Phe(4-F) 4; lactam Asp 2-Lys 7; C-terminal NH2, also called No. 103) [Ac-Arg-cyclo(Asp-Pro-D-Phe(4-F)-Arg-Trp-Lys)-NH2] ?
8.40

Quick one: pKi for Ac-REA[dPhe(4-CN)]RW[Orn]-NH2 (lactam 2-7; SMILES CC(=O)N[C@@H](CCCNC(=N)N)C(=O)N[C@H]1CCC(=O)NCCC[C@@H](C(N)=O)NC(=O)[C@H](Cc2c[nH]c3ccccc23)NC(=O)[C@H](CCCNC(=N)N)NC(=O)[C@@H](Cc2ccc(C#N)cc2)NC(=O)[C@H](C)NC1=O, also called No. 41) [Ac-Arg-cyclo(Glu-Ala-D-Phe(4-CN)-Arg-Trp-Orn)-NH2] ?
8.52
